Hey, just so you know, these numbers are from patent US12655106B2.

// each record: one item and its IC50 for Full length Human HDAC8 (Homo sapiens)

- MOLECULE: "O=C(NO)c1cc(F)c2c(c1)CCN([C@@H]1CC[C@]13CCOC3)C2 (single isomer, unassigned)"
  IC50: "10 to 100 µM"
- MOLECULE: "C[C@@H]1CC[C@@H]2c3c(F)cc(C(=O)NO)cc3CCN12 (single isomer, unassigned)"
  IC50: "1 to 10 µM"
- MOLECULE: "CC[C@H]1Cc2c(F)cc(C(=O)NO)cc2CN1C1CC2(CCN(C)CC2)C1 (single isomer, unassigned)"
  IC50: "10 to 100 µM"
- MOLECULE: "O=C(NO)c1cc(F)c2c(c1)C[C@H]1CCCCN1C2"
  IC50: "1 to 10 µM"
- MOLECULE: "CC1(C)C[C@@H]2Cc3c(F)cc(C(=O)NO)cc3CN2C1"
  IC50: "1 to 10 µM"
- MOLECULE: "CC[C@H]1Cc2c(F)cc(C(=O)NO)cc2CN1C1CCCCC1 (single isomer, unassigned)"
  IC50: "10 to 100 µM"
- MOLECULE: "CC[C@H]1Cc2c(F)cc(C(=O)NO)cc2CN1CC1CC2CCC(C1)N2C1CC1 (single isomer, unassigned)"
  IC50: "1 to 10 µM"

* * *

- ASSAY TARGET: Full length Human HDAC6 (Homo sapiens)
- Construct: Full length Human HDAC6; FLAG (C); host or cells: baculovirus expression system
- Sequence (Q9UBN7 1-1215): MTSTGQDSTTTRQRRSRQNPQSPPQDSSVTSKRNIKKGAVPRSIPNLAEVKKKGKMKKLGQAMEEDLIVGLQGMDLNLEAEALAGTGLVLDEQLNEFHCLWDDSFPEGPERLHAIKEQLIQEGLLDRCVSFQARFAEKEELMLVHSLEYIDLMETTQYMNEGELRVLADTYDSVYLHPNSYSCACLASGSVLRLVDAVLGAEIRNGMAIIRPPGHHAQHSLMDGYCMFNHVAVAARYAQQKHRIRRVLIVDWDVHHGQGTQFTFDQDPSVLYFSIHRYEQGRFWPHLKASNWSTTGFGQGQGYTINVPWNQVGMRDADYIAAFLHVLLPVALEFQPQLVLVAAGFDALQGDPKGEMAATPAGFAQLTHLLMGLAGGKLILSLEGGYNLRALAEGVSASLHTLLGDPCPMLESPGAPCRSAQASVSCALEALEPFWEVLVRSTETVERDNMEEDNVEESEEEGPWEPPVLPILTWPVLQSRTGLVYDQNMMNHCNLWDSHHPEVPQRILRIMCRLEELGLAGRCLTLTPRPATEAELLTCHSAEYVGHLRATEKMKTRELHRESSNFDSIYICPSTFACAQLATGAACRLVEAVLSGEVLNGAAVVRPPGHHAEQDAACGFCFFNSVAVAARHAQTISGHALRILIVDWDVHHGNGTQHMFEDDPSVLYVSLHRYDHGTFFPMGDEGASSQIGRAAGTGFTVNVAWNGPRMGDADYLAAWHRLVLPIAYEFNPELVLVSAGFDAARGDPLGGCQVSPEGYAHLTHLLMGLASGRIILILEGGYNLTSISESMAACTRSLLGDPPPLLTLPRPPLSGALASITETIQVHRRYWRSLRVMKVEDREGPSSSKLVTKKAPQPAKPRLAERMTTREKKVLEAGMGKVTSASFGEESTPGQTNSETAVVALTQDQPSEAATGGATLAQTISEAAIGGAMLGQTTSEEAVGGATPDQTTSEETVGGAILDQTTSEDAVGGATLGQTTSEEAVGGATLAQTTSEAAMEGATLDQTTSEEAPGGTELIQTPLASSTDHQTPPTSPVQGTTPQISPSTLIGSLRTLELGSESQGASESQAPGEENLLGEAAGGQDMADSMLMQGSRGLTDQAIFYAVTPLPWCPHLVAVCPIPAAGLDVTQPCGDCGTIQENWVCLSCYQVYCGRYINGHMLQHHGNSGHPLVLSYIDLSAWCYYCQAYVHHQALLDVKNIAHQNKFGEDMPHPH
- ASSAY OVERVIEW: Caliper endpoint assay for HDAC enzymatic activity (HDAC6)
- Type: biochemical
- TEST CONDITIONS: in vitro enzymatic, Caliper endpoint assay, 30 min pre-incubation, 1 μM substrate peptide

- MOLECULE: "O=C(NO)c1ccc2c(c1)CCN1CCC[C@@H]21"
  IC50: "0.1 to 1 µM"
- MOLECULE: "C[C@H]1C[C@@H]2c3c(F)cc(C(=O)NO)cc3CCN2C1 (single isomer, unassigned)"
  IC50: "0.1 to 1 µM"
- MOLECULE: "CC1(C)C[C@H]2Cc3c(F)cc(C(=O)NO)cc3CN2C1"
  IC50: "0.1 to 1 µM"
- MOLECULE: "O=C(NO)c1cc(F)c2c(c1)CCN(C1CC[C@@]13CCCO3)C2 (single isomer, unassigned)"
  IC50: "0.001 to 0.1 µM"
- MOLECULE: "O=C(NO)c1cc(F)c2c(c1)CCN1CCCC[C@H]21 (single isomer, unassigned)"
  IC50: "1 to 10 µM"
- MOLECULE: "O=C(NO)c1ccc2c(c1)CCN1CCCC[C@H]21"
  IC50: "1 to 10 µM"
- MOLECULE: "CN1C[C@@]2(CN3CCc4cc(C(=O)NO)cc(F)c4C3)C[C@@H]1CO2"
  IC50: "0.001 to 0.1 µM"
- MOLECULE: "CN1CC2CC(C1)C2CN1CCc2cc(C(=O)NO)cc(F)c2C1 (stereo not shown)"
  IC50: "0.001 to 0.1 µM"
- MOLECULE: "CC[C@@H]1Cc2c(F)cc(C(=O)NO)cc2CN1C1CC2(CCN(C(C)=O)CC2)C1 (single isomer, unassigned)"
  IC50: "0.1 to 1 µM"
- MOLECULE: "O=C(NO)c1cc(F)c2c(c1)CCN(CC1CCC3(CC1)CNC3)C2"
  IC50: "0.001 to 0.1 µM"
- MOLECULE: "O=C(NO)c1ccc2c(c1)C[C@H]1COCCN1C2"
  IC50: "0.001 to 0.1 µM"
- MOLECULE: "CN1CC[C@@]2(CC[C@@H]2N2CCc3cc(C(=O)NO)cc(F)c3C2)C1 (single isomer, unassigned)"
  IC50: "0.001 to 0.1 µM"
- MOLECULE: "CC1(C)C[C@@H]2Cc3cc(C(=O)NO)cc(F)c3CN2C1"
  IC50: "0.1 to 1 µM"
- MOLECULE: "CC[C@H]1Cc2c(F)cc(C(=O)NO)cc2CN1CC12CC3CC(CC(C3)C1)C2 (single isomer, unassigned)"
  IC50: "0.001 to 0.1 µM"
- MOLECULE: "CC[C@H]1Cc2c(F)cc(C(=O)NO)cc2CN1C[C@@H]1C[C@H]2CC[C@@H](C1)N2C (single isomer, unassigned)"
  IC50: "0.001 to 0.1 µM"
- MOLECULE: "CN1CCC[C@]2(CC[C@@H]2N2CCc3cc(C(=O)NO)cc(F)c3C2)C1 (single isomer, unassigned)"
  IC50: "0.001 to 0.1 µM"

* * *

Target chain: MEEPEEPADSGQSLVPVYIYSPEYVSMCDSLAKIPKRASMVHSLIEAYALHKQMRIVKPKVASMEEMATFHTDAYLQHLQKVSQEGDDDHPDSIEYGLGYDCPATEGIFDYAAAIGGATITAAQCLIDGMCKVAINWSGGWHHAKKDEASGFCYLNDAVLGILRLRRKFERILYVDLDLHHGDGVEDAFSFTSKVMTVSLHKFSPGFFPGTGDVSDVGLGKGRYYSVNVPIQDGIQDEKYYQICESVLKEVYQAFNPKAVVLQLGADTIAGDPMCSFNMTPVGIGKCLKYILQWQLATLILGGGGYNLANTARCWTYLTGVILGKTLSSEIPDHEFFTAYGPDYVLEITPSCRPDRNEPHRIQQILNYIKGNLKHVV

- MOLECULE: "CN1CCC2(CC1)CC(N1CCc3cc(C(=O)NO)cc(F)c3C1)C2"
  IC50: "10 to 100 µM"
- MOLECULE: "CC[C@@H]1Cc2c(F)cc(C(=O)NO)cc2CN1CC1CC2CCC(C1)N2C (single isomer, unassigned)"
  IC50: "1 to 10 µM"
- MOLECULE: "O=C(NO)c1ccc2c(c1)C[C@@H]1CCCN1C2"
  IC50: "10 to 100 µM"
- MOLECULE: "O=C(NO)c1cc(F)c2c(c1)CCN(C1CC3(CCOC3)C1)C2 (single isomer, unassigned) [Compound 189]"
  IC50: "10 to 100 µM"

* * *

- ASSAY TARGET: Full length Human HDAC8 (Homo sapiens, UniProt Q9BY41)
- Sequence (Q9BY41 1-377): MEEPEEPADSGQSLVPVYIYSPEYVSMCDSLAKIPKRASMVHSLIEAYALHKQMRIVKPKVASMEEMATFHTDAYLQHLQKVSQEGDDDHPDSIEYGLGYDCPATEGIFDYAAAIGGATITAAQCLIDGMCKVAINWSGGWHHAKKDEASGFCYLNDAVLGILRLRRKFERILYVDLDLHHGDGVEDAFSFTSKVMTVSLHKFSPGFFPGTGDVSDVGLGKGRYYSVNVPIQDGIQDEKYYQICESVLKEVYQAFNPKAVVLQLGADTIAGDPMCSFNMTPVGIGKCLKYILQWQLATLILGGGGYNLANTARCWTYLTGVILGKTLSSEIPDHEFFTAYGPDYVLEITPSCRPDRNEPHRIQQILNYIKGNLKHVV
Catalogue of IC50 values

- MOLECULE: "O=C(NO)c1cc(F)c2c(c1)CCN1CCCC[C@@H]21 (single isomer, unassigned) [Compound 139]"
  IC50: "1 to 10 µM"
- MOLECULE: "O=C(NO)c1cc(F)c2c(c1)CCN(CC1C3CNCC1C3)C2 (stereo not shown) [Compound 493]"
  IC50: "10 to 100 µM"
- MOLECULE: "CC[C@H]1Cc2c(F)cc(C(=O)NO)cc2CN1CC12CC3CC(CC(C3)C1)C2 (single isomer, unassigned) [Compound 508]"
  IC50: "1 to 10 µM"
- MOLECULE: "CC[C@@H]1Cc2c(F)cc(C(=O)NO)cc2CN1C1CCC1 (single isomer, unassigned) [Compound 596]"
  IC50: "10 to 100 µM"
- MOLECULE: "C[C@H]1CC[C@@H]2c3c(F)cc(C(=O)NO)cc3CCN21 (single isomer, unassigned) [Compound 159]"
  IC50: "1 to 10 µM"
- MOLECULE: "CC[C@H]1Cc2c(F)cc(C(=O)NO)cc2CN1CC1CCC2(CCC2)CC1 (single isomer, unassigned) [Compound 528]"
  IC50: "1 to 10 µM"
- MOLECULE: "O=C(NO)c1cc(F)c2c(c1)CCN(CC1CCC3(CC1)CN(C1CC1)C3)C2 [Compound 466]"
  IC50: "10 to 100 µM"
